tested on: receptor labeled by the radioiodinated analogue of 1 (4, [125I]-YLFQPQRF-NH2); neuropeptide FF receptor; assay: Competitive radioligand binding against 4 ([125I]Y8F-amide); details: mixture-based positional scanning; difference from averaged radioligand displacement of whole library (0); about 80 a.u. = 10-fold change in Ki
Peptide text beside a SMILES is read from it. * marks the point of attachment. Dansyl = CN(C)c1cccc2c(S(=O)(=O)*)cccc12
experimental.endpoint: Relative Binding Index (RBI) (a.u.)

Consider the worked cases shown below.
compound: CN(C)c1cccc2c(S(=O)(=O)N[C@@H](CO)C(=O)N[C@@H](Cc3c[nH]c4ccccc34)C(=O)N[C@@H](CCCNC(=N)N)C(N)=O)cccc12 [Dansyl-SWR-amide] (Dansyl-Ser-Trp-Arg-NH2)
test.value: 25
--
compound: CN(C)c1cccc2c(S(=O)(=O)N[C@@H](CCC(=O)O)C(=O)N3CCC[C@H]3C(=O)N[C@@H](CCCNC(=N)N)C(N)=O)cccc12 [Dansyl-EPR-amide] (Dansyl-Glu-Pro-Arg-NH2)
test.value: 20

(1) CN(C)c1cccc2c(S(=O)(=O)N3CCC[C@H]3C(=O)N3CCC[C@H]3C(=O)N[C@@H](CCCNC(=N)N)C(N)=O)cccc12 [Dansyl-PPR-amide] (Dansyl-Pro-Pro-Arg-NH2)
(2) C[C@H](NS(=O)(=O)c1cccc2c(N(C)C)cccc12)C(=O)N[C@@H](Cc1c[nH]c2ccccc12)C(=O)N[C@@H](CCCNC(=N)N)C(N)=O [Dansyl-AWR-amide] (Dansyl-Ala-Trp-Arg-NH2)
(3) CN(C)c1cccc2c(S(=O)(=O)N[C@@H](CCCNC(=N)N)C(=O)N[C@@H](Cc3ccccc3)C(=O)N[C@@H](CCCNC(=N)N)C(N)=O)cccc12 [Dansyl-RFR-amide] (Dansyl-Arg-Phe-Arg-NH2)
(4) CC(C)[C@H](NS(=O)(=O)c1cccc2c(N(C)C)cccc12)C(=O)N[C@@H](Cc1ccc(O)cc1)C(=O)N[C@@H](CCCNC(=N)N)C(N)=O [Dansyl-VYR-amide] (Dansyl-Val-Tyr-Arg-NH2)
Problem: Hello, I need these entries ordered by Relative Binding Index (RBI), highest reading first. Thanks! The response must list the labels following the requested ordering.
Result: 2, 3, 4, 1

====

tested on: receptor labeled by the radioiodinated analogue of 1 (4, [125I]-YLFQPQRF-NH2); neuropeptide FF receptor; assay: Competitive radioligand binding against 4 ([125I]Y8F-amide); conditions: mixture-based positional scanning; difference from averaged radioligand displacement of whole library (0); about 80 a.u. = 10-fold change in Ki
Peptide text beside a SMILES is read from it. * marks the point of attachment. Dansyl = CN(C)c1cccc2c(S(=O)(=O)*)cccc12
experimental.endpoint: Relative Binding Index (RBI) (a.u.)

Completed entries (count: 6):
compound: CN(C)c1cccc2c(S(=O)(=O)N[C@@H](CCC(N)=O)C(=O)N[C@@H](CC(=O)O)C(=O)N[C@@H](CCCNC(=N)N)C(N)=O)cccc12 [Dansyl-QDR-amide] (Dansyl-Gln-Asp-Arg-NH2)
experimental.endpoint: Relative Binding Index (RBI)
test.value: 3
--
compound: CN(C)c1cccc2c(S(=O)(=O)N[C@@H](Cc3ccc(O)cc3)C(=O)NCC(=O)N[C@@H](CCCNC(=N)N)C(N)=O)cccc12 [Dansyl-YGR-amide] (Dansyl-Tyr-Gly-Arg-NH2)
experimental.endpoint: Relative Binding Index (RBI)
test.value: 12
--
compound: CN(C)c1cccc2c(S(=O)(=O)N[C@@H](Cc3ccc(O)cc3)C(=O)N[C@@H](CCCNC(=N)N)C(=O)N[C@@H](CCCNC(=N)N)C(N)=O)cccc12 [Dansyl-YRR-amide] (Dansyl-Tyr-Arg-Arg-NH2)
experimental.endpoint: Relative Binding Index (RBI)
test.value: 6
--
compound: CN(C)c1cccc2c(S(=O)(=O)N[C@@H](Cc3ccc(O)cc3)C(=O)N3CCC[C@H]3C(=O)N[C@@H](CCCNC(=N)N)C(N)=O)cccc12 [Dansyl-YPR-amide] (Dansyl-Tyr-Pro-Arg-NH2)
experimental.endpoint: Relative Binding Index (RBI)
test.value: 10
--
compound: CN(C)c1cccc2c(S(=O)(=O)NCC(=O)N[C@@H](CCC(N)=O)C(=O)N[C@@H](CCCNC(=N)N)C(N)=O)cccc12 [Dansyl-GQR-amide, dansyl-Gly-Gln-Arg-NH2] (Dansyl-Gly-Gln-Arg-NH2)
experimental.endpoint: Relative Binding Index (RBI)
test.value: 39
--
compound: CCC(C)C(NC(=O)C(CCCCN)NS(=O)(=O)c1cccc2c(N(C)C)cccc12)C(=O)NC(CCCNC(=N)N)C(N)=O (stereo not drawn) [Dansyl-KIR-amide] (Dansyl-Lys-Ile-Arg-NH2; configuration not given here)
experimental.endpoint: Relative Binding Index (RBI)
test.value: 31

(A) C[C@@H](O)[C@H](NC(=O)[C@H](Cc1cnc[nH]1)NS(=O)(=O)c1cccc2c(N(C)C)cccc12)C(=O)N[C@@H](CCCNC(=N)N)C(N)=O [Dansyl-HTR-amide] (Dansyl-His-Thr-Arg-NH2)
(B) CC(C)C[C@H](NS(=O)(=O)c1cccc2c(N(C)C)cccc12)C(=O)N[C@@H](CC(N)=O)C(=O)N[C@@H](CCCNC(=N)N)C(N)=O [Dansyl-LNR-amide] (Dansyl-Leu-Asn-Arg-NH2)
Problem: Please indicate which item has the smaller measured Relative Binding Index (RBI): A versus B Pick one and reply with its label.
Result: B

====

tested on: receptor labeled by the radioiodinated analogue of 1 (4, [125I]-YLFQPQRF-NH2); neuropeptide FF receptor; assay: Competitive radioligand binding against 4 ([125I]Y8F-amide); settings: mixture-based positional scanning; difference from averaged radioligand displacement of whole library (0); about 80 a.u. = 10-fold change in Ki
Peptide text beside a SMILES is read from it. * marks the point of attachment. Dansyl = CN(C)c1cccc2c(S(=O)(=O)*)cccc12
experimental.endpoint: Relative Binding Index (RBI) (a.u.)

(I) C[C@H](NC(=O)[C@@H]1CCCN1S(=O)(=O)c1cccc2c(N(C)C)cccc12)C(=O)N[C@@H](CCCNC(=N)N)C(N)=O [Dansyl-PAR-amide] (Dansyl-Pro-Ala-Arg-NH2)
(II) C[C@@H](O)[C@H](NS(=O)(=O)c1cccc2c(N(C)C)cccc12)C(=O)N[C@@H](CO)C(=O)N[C@@H](CCCNC(=N)N)C(N)=O [Dansyl-TSR-amide] (Dansyl-Thr-Ser-Arg-NH2)
(III) C[C@H](NC(=O)[C@@H](NS(=O)(=O)c1cccc2c(N(C)C)cccc12)[C@@H](C)O)C(=O)N[C@@H](CCCNC(=N)N)C(N)=O [Dansyl-TAR-amide] (Dansyl-Thr-Ala-Arg-NH2)
Problem: Order these molecules (above) by their Relative Binding Index (RBI), from the smallest value upward. Answer format: the labels, ordered as requested.
Result: I, III, II
(I: −97 a.u., III: −58 a.u., II: 12 a.u.)

(1) CC[C@H](C)[C@H](NS(=O)(=O)c1cccc2c(N(C)C)cccc12)C(=O)N[C@@H](Cc1c[nH]cn1)C(=O)N[C@@H](CCCNC(=N)N)C(N)=O [Dansyl-IHR-amide] (Dansyl-Ile-His-Arg-NH2)
(2) CN(C)c1cccc2c(S(=O)(=O)N3CCC[C@H]3C(=O)N[C@@H](Cc3cnc[nH]3)C(=O)N[C@@H](CCCNC(=N)N)C(N)=O)cccc12 [Dansyl-PHR-amide] (Dansyl-Pro-His-Arg-NH2)
Problem: Which entry has a larger number for Relative Binding Index (RBI), 1 or 2 ? Response format: the label of the selected entry.
Result: 1

====

test system: receptor labeled by the radioiodinated analogue of 1 (4, [125I]-YLFQPQRF-NH2); neuropeptide FF receptor; experiment: Competitive radioligand binding against 4 ([125I]Y8F-amide); conditions: mixture-based positional scanning; difference from averaged radioligand displacement of whole library (0); about 80 a.u. = 10-fold change in Ki
Peptide text beside a SMILES is read from it. * marks the point of attachment. Dansyl = CN(C)c1cccc2c(S(=O)(=O)*)cccc12
experimental.endpoint: Relative Binding Index (RBI) (a.u.)

(P) CC(C)[C@H](NS(=O)(=O)c1cccc2c(N(C)C)cccc12)C(=O)NCC(=O)N[C@@H](CCCNC(=N)N)C(N)=O [Dansyl-VGR-amide] (Dansyl-Val-Gly-Arg-NH2)
(Q) CN(C)c1cccc2c(S(=O)(=O)N[C@@H](CCC(=O)O)C(=O)N[C@@H](CCC(=O)O)C(=O)N[C@@H](CCCNC(=N)N)C(N)=O)cccc12 [Dansyl-EER-amide] (Dansyl-Glu-Glu-Arg-NH2)
(R) CC(C)[C@H](NS(=O)(=O)c1cccc2c(N(C)C)cccc12)C(=O)N[C@@H](C)C(=O)N[C@@H](CCCNC(=N)N)C(N)=O [Dansyl-VAR-amide] (Dansyl-Val-Ala-Arg-NH2)
Problem: Arrange by Relative Binding Index (RBI), high to low. Order the labels as requested and list them.
Result: Q, P, R
(Q: 17 a.u., P: 1 a.u., R: −53 a.u.)
